# ASSAY_PROTOCOL: compounds altering viability of human ES cells (AID 493140);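 also: cells exposed to compounds for four days before counting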
# TEST_CONDITIONS: human embryonic stem cell survival screen; stronger effect = higher value
Activity calls are given as the source filed them. No rule for the calls is given here.
MEASURED_METRIC: survival

Item C=C1CC[C@H](O)C/C1=C/C=C1\CCC[C@]2(C)[C@@H]([C@H](C)CC[C@@H](O)C(C)(C)O)CC[C@@H]12 : provide survival
80.4 (inactive)

Item Nc1nc2ncc(CNc3ccc(C(=O)N[C@H](CCC(=O)O)C(=O)O)cc3)nc2c(=O)[nH]1 : provide survival
11.4 (inactive)

---

Measured fold change by item
# ASSAY_PROTOCOL: viability loss with induced miR-34 in A549 – imaging, A549 dox-inducible miR-34, nuclei and caspase counts, primary screen (AID 1347080); also: test concentration not given here
# TEST_CONDITIONS: A549 miR-34 inducible, Hoechst nuclei count, 48 h; stronger effect = lower value; cell number ratio, induced over uninduced
// response body must contain only the number

These solved cases illustrate the format of a correct answer.
INSERT INTO measurements (compound, value_measured) VALUES
  ('Cc1nn(C)c(C)c1-c1ccnc(NCCc2nc3ccc(Cl)cc3[nH]2)n1', 0.924),
  ('CC(NC(=O)C(Cc1ccccc1)NC(=O)OCc1ccccc1)C(=O)CF (stereo not given)', 0.911),
  ('Cc1[nH]c2ccccc2c1CCNCc1ccc(C=CC(=O)NO)cc1', 0.894),
  ('O=C(Nc1cccnc1)C1CCN(C(=O)c2ccccc2Cl)CC1', 0.886);

Now examine the next entry.
Item Cc1ccc(-c2noc([C@@]34CC[C@@](C)(C(=O)O3)C4(C)C)n2)cc1Cl : provide fold change
0.896
